Tested on: patient leukemic cells (AML samples)
experiment_notes: cells
Type: cell-based
condition_info: Patient No. 2, 72 hours; read-out: LC50 value
measured_attribute: CC50 (nM)

>>> endpoint_value("Clc1ccc(Nc2nnc(Cc3ccncc3)c3ccccc23)cc1")
7.3

----------
System: patient leukemic cells (AML samples)
experiment_notes: cells
Assay type: cell-based
condition_info: Patient No. 5, 72 hours; read-out: LC50 value
measured_attribute: CC50 (nM)

>>> endpoint_value("Clc1ccc(Nc2nnc(Cc3ccncc3)c3ccccc23)cc1")
7.7

----------
System: patient leukemic cells (AML samples)
experiment_notes: cells
Type: cell-based
condition_info: Patient No. 3, 72 hours; read-out: LC50 value
measured_attribute: CC50 (nM)

>>> endpoint_value("Clc1ccc(Nc2nnc(Cc3ccncc3)c3ccccc23)cc1")
5.8

----------
System: patient leukemic cells (AML samples)
experiment_notes: cells
Format: cell-based
condition_info: Patient No. 4, 72 hours; read-out: LC50 value
measured_attribute: CC50 (nM)

>>> endpoint_value("Clc1ccc(Nc2nnc(Cc3ccncc3)c3ccccc23)cc1")
25

----------
System: patient leukemic cells (AML samples)
experiment_notes: cells
Assay type: cell-based
condition_info: Patient No. 1, 72 hours; read-out: LC50 value
measured_attribute: CC50

>>> endpoint_value("Clc1ccc(Nc2nnc(Cc3ccncc3)c3ccccc23)cc1")
"> 25 nM"

Recorded values, source patent US20100261726A1.
